Attribute: melting point

// worked examples, melting point included
N#CC(=CNc1ccccc1)Cc1cnc2ccccc2c1    202 to 203 °C
CS(=O)(=O)c1ccc(C2CC(=O)C(C(=O)c3ccc(Cl)cc3[N+](=O)[O-])C(=O)N2)cc1 (stereo not given)    296 to 299 °C
CCNc1ccccc1Nc1c(C(=O)O)cnc2c1cnn2CC    224 to 226 °C
C=Cn1cc(C(=O)O)c(=O)c2cc(Cl)c(N3CCNCC3)nc21    272 to 274 °C

For reference, reported melting point for "Cn1nc(C(F)(F)F)cc1Oc1cccc(-c2nc(C(F)(F)C(F)(F)F)no2)n1" stands at 109 to 110 °C

For reference, reported melting point for "CN1CC=C(c2cccc3ccc(O)cc23)CC1" stands at 182 to 184 °C

For reference, reported melting point for "COc1c(CCc2ccc(F)cc2)cc(Cl)cc1C(N)=O" stands at 85 °C

For reference, reported melting point for "COCOc1c(OC)cc(C=O)cc1OC" stands at 52 to 53 °C

For reference, reported melting point for "N=C1N(c2ccccc2)CCN1c1ccccc1[N+](=O)[O-]" stands at 257 to 259 °C

For reference, reported melting point for CC(C)(CC(=O)O)SC(CCCc1ccccc1)c1ccc(OCc2ccc3ccccc3n2)cc1 (stereo not given) stands at 90 to 92 °C

---

Attribute Measured: melting point

// worked examples, melting point included
CC(O)c1cc(Br)ccc1N (stereo unspecified)    95 to 96 °C
C=CCNc1nc(NCCOC)nc2c(C)csc12    87 to 88 °C
CCOC(=O)c1ccc(Br)c(OCC)c1N(CC)S(C)(=O)=O    43 to 45 °C
O=S1(=O)O[C@H](COCc2ccccc2)CC[C@@H](COCc2ccccc2)O1    57 to 59 °C
CCCCc1nc(=O)c2cc(C#N)ccc2[nH]1    243 to 245 °C

For reference, reported melting point for "NS(=O)(=O)c1ncccc1C1=NOCC1" stands at 155 to 156 °C

For reference, reported melting point for "CCCCc1oc2ccc(CO)cc2c1C1(c2ccc(O)cc2)OCCO1" stands at 100 to 101 °C

For reference, reported melting point for "O=C1COc2cc(F)c(N3C(=O)C4=C(CCCC4)C3=O)cc2N1Cc1ccccn1" stands at 188 to 190 °C

For reference, reported melting point for N=c1ccccn1CC(O)COc1cccc2ccccc12 (stereo unspecified) stands at 138 to 141 °C

For reference, reported melting point for O=C1N(Cc2ccc(O)cc2)c2ccccc2C12COc1cc3c(cc12)OCCO3 (stereo unspecified) stands at 243 to 244 °C

For reference, reported melting point for "Cc1ccc2c(=O)c3cc(C(F)(F)F)ccc3sc2c1" stands at 174 to 178 °C

For reference, reported melting point for "Nc1nc(NCCN2CCN(C(c3ccccc3)c3ccccc3)CC2)nc(-c2cc(Cl)ccc2Cl)n1" stands at 192 to 193 °C

For reference, reported melting point for "CC(=O)N(CCc1nc(-c2ccccc2)oc1C)Cc1ccc(C[C@@H](C(=O)O)n2cccc2)cc1" stands at 82 to 87 °C

For reference, reported melting point for "FC(F)(F)Oc1ccc(C2CCC3(CC2)OCCO3)cc1" stands at 41.2 °C

For reference, reported melting point for "Cn1c(CO)nc2ccc(OCc3ccccc3)nc21" stands at 133 to 135 °C

For reference, reported melting point for "O=C1OC(c2ccccc2)=NC1=NNc1ccccc1" stands at 200 to 203 °C

For reference, reported melting point for CC(=O)C1CCC2C3CCC4CC(O)(Cc5ccccc5)CCC4(C)C3CCC12C (stereo unspecified) stands at 133 to 141 °C

For reference, reported melting point for "Nc1nc(-c2ccc(F)cc2)cc(-c2ccc(F)cc2)n1" stands at 207 to 210 °C

For reference, reported melting point for "O=C(CSc1n[nH]c(-c2ccccc2)n1)C12CC3CC(CC(C3)C1)C2" stands at 187 to 188 °C

For reference, reported melting point for "Cn1nc(-c2cccc(-n3ncc4cc(C(C)(C)C)cc(F)c4c3=O)c2CO)cc(Nc2ccn(C[C@@H](O)CO)n2)c1=O" stands at 245 to 250 °C

For reference, reported melting point for "Cc1ccc(C(=O)CCc2ccc(N)cc2)cc1" stands at 59 to 61 °C
